Catalogue of binders with associated pKd
biological target: cynomolgus monkey ABCC1 (UniProt Q864R9 1-1531); test: FACS cell binding
Sequence (Q864R9 whole entry): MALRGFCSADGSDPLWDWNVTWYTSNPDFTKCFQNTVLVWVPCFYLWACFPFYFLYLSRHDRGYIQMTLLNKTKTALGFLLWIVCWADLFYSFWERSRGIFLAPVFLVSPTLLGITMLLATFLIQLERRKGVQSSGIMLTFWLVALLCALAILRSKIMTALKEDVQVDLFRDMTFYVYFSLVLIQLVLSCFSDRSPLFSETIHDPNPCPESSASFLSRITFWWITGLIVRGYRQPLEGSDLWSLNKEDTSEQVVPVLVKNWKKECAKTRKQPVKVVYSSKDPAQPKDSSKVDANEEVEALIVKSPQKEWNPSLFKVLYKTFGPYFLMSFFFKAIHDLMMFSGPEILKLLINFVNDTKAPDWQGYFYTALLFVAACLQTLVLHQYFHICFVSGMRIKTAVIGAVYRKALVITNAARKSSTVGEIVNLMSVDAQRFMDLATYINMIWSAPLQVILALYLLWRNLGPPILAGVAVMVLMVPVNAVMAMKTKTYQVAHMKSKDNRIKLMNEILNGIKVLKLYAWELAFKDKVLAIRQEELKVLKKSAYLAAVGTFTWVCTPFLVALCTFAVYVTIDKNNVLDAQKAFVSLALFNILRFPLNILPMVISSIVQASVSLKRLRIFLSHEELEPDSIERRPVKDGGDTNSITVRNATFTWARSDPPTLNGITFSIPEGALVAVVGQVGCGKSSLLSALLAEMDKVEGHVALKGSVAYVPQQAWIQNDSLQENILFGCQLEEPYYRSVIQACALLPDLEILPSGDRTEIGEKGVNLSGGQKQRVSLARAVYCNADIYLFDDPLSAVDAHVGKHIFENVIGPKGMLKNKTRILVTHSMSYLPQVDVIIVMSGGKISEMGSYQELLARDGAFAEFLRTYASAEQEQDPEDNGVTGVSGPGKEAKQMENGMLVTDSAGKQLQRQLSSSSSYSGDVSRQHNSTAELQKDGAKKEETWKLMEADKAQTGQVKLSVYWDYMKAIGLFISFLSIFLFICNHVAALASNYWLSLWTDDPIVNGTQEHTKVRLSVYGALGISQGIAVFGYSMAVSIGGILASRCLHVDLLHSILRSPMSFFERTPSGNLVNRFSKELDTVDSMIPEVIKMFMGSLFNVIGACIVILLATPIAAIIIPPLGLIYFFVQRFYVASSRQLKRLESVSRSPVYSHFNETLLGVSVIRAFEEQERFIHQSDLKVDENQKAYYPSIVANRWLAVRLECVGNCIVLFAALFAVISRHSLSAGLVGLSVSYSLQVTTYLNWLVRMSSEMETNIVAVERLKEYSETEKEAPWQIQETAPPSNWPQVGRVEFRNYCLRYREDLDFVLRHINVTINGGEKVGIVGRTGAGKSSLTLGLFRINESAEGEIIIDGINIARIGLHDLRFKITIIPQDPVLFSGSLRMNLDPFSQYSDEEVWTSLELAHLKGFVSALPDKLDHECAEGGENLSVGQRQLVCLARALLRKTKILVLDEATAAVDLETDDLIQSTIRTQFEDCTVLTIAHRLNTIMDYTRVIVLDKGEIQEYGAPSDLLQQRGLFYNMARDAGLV
Quick note: pKd values are minus log10 of concentrations in mol/L.

BINDER	OBSERVED_MEASUREMENT
C1.861.hu61 (antibody, V domains shown) VH: EVQLVESGGGLIQPGGSLRLSCAVSGFSLTSSGVTWVRQPPGKGLEWIAAISSGGNIYYNSAVKSRLTISRDTSKNTVYLQMNSLRAEDTAVYFCTRARGTTTAYVMDAWGQGTTVTVSS VL: DVQLTQSPSSLSASVGDRVTITCKSSQSLLYSGNQKNYLAWYQQKPGKSPKLLIYWASTRQSGVPSRFSGSGSGTDFTLTISSLQPEDVATYYCQQYYDVLMNMFGGGTKLEIK	6.87

// lookup pKd for C1.831.hu11 (antibody, V domains shown) VH: EVQLQESGPGLVKPSETLSLTCTVSGFSLTSNGVSWVRQPPGKGLEWIAAISSGGNIYYNSVLKSRLTISRDTSKNQVSLKLSSVTAADTAVYYCTRERGWNYPFITNGYYFDYWGQGTLVTVSS VL: DIQLTQSPSSLSASVGDRVTITCKAGQNINNYLAWYQQKPGKAPKLLIYNANSLQTGIPSRFSGSGSGTDYTLTISSLQPEDFATYYCQQYNSWYTFGQGTKLEIK
7.57

// lookup pKd for C1.831.hu41 (antibody, V domains shown) VH: EVQLQESGPGLVKPSETLSLTCTVSGFSLTSQGVSWVRQPPGKGLEWIAAISSGGNIYYNSVLKSRLTISRDTSKNQVSLKLSSVTAADTAVYYCTRERGWNYPFITSGYYFDYWGQGTLVTVSS VL: DIQLTQSPSSLSASVGDRVTITCKAGQNINNYLAWYQQKPGKAPKLLIYNANSLQTGIPSRFSGSGSGTDYTLTISSLQPEDFATYYCQQYNSWYTFGQGTKLEIK
7.70
